test: Dog PK study of C1 (S) enantiomer, single oral dose, plasma and whole blood by chiral LC-MS/MS; format: in vivo, beagle dogs; conditions: dog, plasma; 936 hr; Beagle; oral 10 mg/kg; read-out: Plasma Concentration
measuredParameter: concentration at 936 hr (ng/mL)
Number in ng/mL, nothing else.

Input: Would you kindly share the measured concentration at 936 hr for O=C(CC(F)(F)F)N1CC2(C1)OCc1cc(C3=NS[C@@](c4cc(Cl)c(F)c(Cl)c4)(C(F)(F)F)C3)ccc12 [C1 (S) enantiomer] ?
Output: 24.8

---

experiment: Dog PK study of C1 (S) enantiomer, single oral dose, plasma and whole blood by chiral LC-MS/MS; assay type: in vivo, beagle dogs; conditions: dog; whole blood; Beagle; oral gavage 10 mg/kg
measuredParameter: half-life (h)
Number in h, nothing else.

Input: Would you kindly share the measured half-life for O=C(CC(F)(F)F)N1CC2(C1)OCc1cc(C3=NS[C@@](c4cc(Cl)c(F)c(Cl)c4)(C(F)(F)F)C3)ccc12 [C1 (S) enantiomer] ?
Output: 209

---

assay: Dog PK study of C1 (S) enantiomer, single oral dose, plasma and whole blood by chiral LC-MS/MS; assay type: in vivo, beagle dogs; conditions: dog, whole blood; 408 hr; Beagle; oral 10 mg/kg; read-out: Blood Concentration
measuredParameter: concentration at 408 hr (ng/mL)
Number in ng/mL, nothing else.

Input: Would you kindly share the measured concentration at 408 hr for O=C(CC(F)(F)F)N1CC2(C1)OCc1cc(C3=NS[C@@](c4cc(Cl)c(F)c(Cl)c4)(C(F)(F)F)C3)ccc12 [C1 (S) enantiomer] ?
Output: 75.8

---

experiment: Dog PK study of C1 (S) enantiomer, single oral dose, plasma and whole blood by chiral LC-MS/MS; assay type: in vivo, beagle dogs; conditions: dog, whole blood; 0.25 hr; Beagle; oral 10 mg/kg; read-out: Blood Concentration
measuredParameter: concentration at 0.25 hr (ng/mL)
Number in ng/mL, nothing else.

Input: Would you kindly share the measured concentration at 0.25 hr for O=C(CC(F)(F)F)N1CC2(C1)OCc1cc(C3=NS[C@@](c4cc(Cl)c(F)c(Cl)c4)(C(F)(F)F)C3)ccc12 [C1 (S) enantiomer] ?
Output: 412

---

experiment: Dog PK study of C1 (S) enantiomer, single oral dose, plasma and whole blood by chiral LC-MS/MS; type: in vivo, beagle dogs; conditions: dog, plasma; 1032 hr; Beagle; oral 10 mg/kg; read-out: Plasma Concentration
measuredParameter: concentration at 1032 hr (ng/mL)
Number in ng/mL, nothing else.

Input: Would you kindly share the measured concentration at 1032 hr for O=C(CC(F)(F)F)N1CC2(C1)OCc1cc(C3=NS[C@@](c4cc(Cl)c(F)c(Cl)c4)(C(F)(F)F)C3)ccc12 [C1 (S) enantiomer] ?
Output: 18.8

---

assay: Plasma PK from oral tick and flea efficacy studies of the C1 racemate; type: in vivo, Mongrel dogs; details: mongrel, dog, plasma, po, 10 mg/kg; Flea Efficacy study, oral 10 mg/kg
measuredParameter: CL/F (mL/min/kg)
Number in mL/min/kg, nothing else.

Input: Would you kindly share the measured CL/F for O=C(CC(F)(F)F)N1CC2(C1)OCc1cc(C3=NSC(c4cc(Cl)c(F)c(Cl)c4)(C(F)(F)F)C3)ccc12 (racemic) [C1 racemate] ?
Output: 0.643

---

assay: Dog PK study of C1 (S) enantiomer, single oral dose, plasma and whole blood by chiral LC-MS/MS; assay type: in vivo, beagle dogs; conditions: dog, plasma; 48 hr; Beagle; oral 10 mg/kg; read-out: Plasma Concentration
measuredParameter: concentration at 48 hr
The reply should read as a number followed by its unit.

Input: Would you kindly share the measured concentration at 48 hr for O=C(CC(F)(F)F)N1CC2(C1)OCc1cc(C3=NS[C@@](c4cc(Cl)c(F)c(Cl)c4)(C(F)(F)F)C3)ccc12 [C1 (S) enantiomer] ?
Output: 567 ng/mL

---

assay: Plasma PK from oral tick and flea efficacy studies of the C1 racemate; type: in vivo, Mongrel dogs; conditions: mongrel, dog, plasma, po, 20 mg/kg, plasma; Mongrel; Tick Efficacy study, oral 20 mg/kg; read-out: NCA AUC0-last
measuredParameter: AUC(0-t) (µg·h/mL)
Number in µg·h/mL, nothing else.

Input: Would you kindly share the measured AUC(0-t) for O=C(CC(F)(F)F)N1CC2(C1)OCc1cc(C3=NSC(c4cc(Cl)c(F)c(Cl)c4)(C(F)(F)F)C3)ccc12 (racemic) [C1 racemate] ?
Output: 494

---

test: Dog PK study of C1 (S) enantiomer, single oral dose, plasma and whole blood by chiral LC-MS/MS; assay type: in vivo, beagle dogs; conditions: dog, whole blood; 840 hr; Beagle; oral 10 mg/kg; read-out: Blood Concentration
measuredParameter: concentration at 840 hr (ng/mL)
Number in ng/mL, nothing else.

Input: Would you kindly share the measured concentration at 840 hr for O=C(CC(F)(F)F)N1CC2(C1)OCc1cc(C3=NS[C@@](c4cc(Cl)c(F)c(Cl)c4)(C(F)(F)F)C3)ccc12 [C1 (S) enantiomer] ?
Output: 17.4

---

Experiment: Plasma PK from oral tick and flea efficacy studies of the C1 racemate
Assay type: in vivo, Mongrel dogs
Conditions: mongrel, dog, plasma, po, 10 mg/kg, plasma; Mongrel; Flea Efficacy study, oral 10 mg/kg; read-out: t1/2 (converted)
Description: However, the S- enantiomer plasma PK curves and calculated PK parameters conducted in beagle dogs differed from oral efficacy studies conducted on the racemate dosed in mongrels. Pharmacokinetic results from the compound C1 (S) enantiomer PK study differed from racemic efficacy studies. Average plasma pharmacokinetic parameters from the compound C1 (S) enantiomer PK study described in this document are compared to those from oral efficacy studies of the racemate in Table 6.
measuredParameter: half-life (days)
Number in days, nothing else.

Input: Would you kindly share the measured half-life for O=C(CC(F)(F)F)N1CC2(C1)OCc1cc(C3=NSC(c4cc(Cl)c(F)c(Cl)c4)(C(F)(F)F)C3)ccc12 (racemic) [C1 racemate] ?
Output: 23.8

---

test: Dog PK study of C1 (S) enantiomer, single oral dose, plasma and whole blood by chiral LC-MS/MS; assay type: in vivo, beagle dogs; conditions: dog, plasma; 4 hr; Beagle; oral 10 mg/kg; read-out: Plasma Concentration
measuredParameter: concentration at 4 hr (ng/mL)
Number in ng/mL, nothing else.

Input: Would you kindly share the measured concentration at 4 hr for O=C(CC(F)(F)F)N1CC2(C1)OCc1cc(C3=NS[C@@](c4cc(Cl)c(F)c(Cl)c4)(C(F)(F)F)C3)ccc12 [C1 (S) enantiomer] ?
Output: 2010

---

experiment: Plasma PK from oral tick and flea efficacy studies of the C1 racemate; type: in vivo, Mongrel dogs; settings: mongrel, dog, plasma, po, 10 mg/kg, plasma; Mongrel; Flea Efficacy study, oral 10 mg/kg; read-out: NCA AUC0-∞
measuredParameter: AUC(0-inf)

Input: Would you kindly share the measured AUC(0-inf) for O=C(CC(F)(F)F)N1CC2(C1)OCc1cc(C3=NSC(c4cc(Cl)c(F)c(Cl)c4)(C(F)(F)F)C3)ccc12 (racemic) [C1 racemate] ?
Output: 361 µg·h/mL

---

assay: Dog PK study of C1 (S) enantiomer, single oral dose, plasma and whole blood by chiral LC-MS/MS; type: in vivo, beagle dogs; details: dog; whole blood; Beagle; oral gavage 10 mg/kg; read-out: NCA AUC0-∞
measuredParameter: AUC(0-inf) (µg·h/mL)
Number in µg·h/mL, nothing else.

Input: Would you kindly share the measured AUC(0-inf) for O=C(CC(F)(F)F)N1CC2(C1)OCc1cc(C3=NS[C@@](c4cc(Cl)c(F)c(Cl)c4)(C(F)(F)F)C3)ccc12 [C1 (S) enantiomer] ?
Output: 148

---

assay: Plasma PK from oral tick and flea efficacy studies of the C1 racemate; format: in vivo, Mongrel dogs; conditions: mongrel, dog, plasma, po, 10 mg/kg, plasma; Mongrel; Tick Efficacy study, oral 10 mg/kg; read-out: Cmax
measuredParameter: Cmax (ng/mL)
Number in ng/mL, nothing else.

Input: Would you kindly share the measured Cmax for O=C(CC(F)(F)F)N1CC2(C1)OCc1cc(C3=NSC(c4cc(Cl)c(F)c(Cl)c4)(C(F)(F)F)C3)ccc12 (racemic) [C1 racemate] ?
Output: 3780

---

Assay: Plasma PK from oral tick and flea efficacy studies of the C1 racemate
Type: in vivo, Mongrel dogs
Settings: mongrel, dog, plasma, po, 20 mg/kg, plasma; Mongrel; Flea Efficacy study, oral 20 mg/kg; read-out: NCA AUC0-last
Description: However, the S- enantiomer plasma PK curves and calculated PK parameters conducted in beagle dogs differed from oral efficacy studies conducted on the racemate dosed in mongrels. Pharmacokinetic results from the compound C1 (S) enantiomer PK study differed from racemic efficacy studies. Average plasma pharmacokinetic parameters from the compound C1 (S) enantiomer PK study described in this document are compared to those from oral efficacy studies of the racemate in Table 6.
measuredParameter: AUC(0-t) (µg·h/mL)
Number in µg·h/mL, nothing else.

Input: Would you kindly share the measured AUC(0-t) for O=C(CC(F)(F)F)N1CC2(C1)OCc1cc(C3=NSC(c4cc(Cl)c(F)c(Cl)c4)(C(F)(F)F)C3)ccc12 (racemic) [C1 racemate] ?
Output: 463
